Recorded values, source ChEMBL document CHEMBL3758081.

Tested on: [Candida] zeylanoides
Test: Antifungal activity against Candida zeylanoides NRLL Y-1774 after 48 hrs by broth microdilution method
Type: functional
Settings: Dujonia zeylanoides, NRLL Y-1774, 48 h
quantity measured: MIC (µg/mL)

[[record]]
compound = "Fc1cccc(/C=N/NC(=S)Nc2cccc3ccccc23)c1F"
assay_value = 250

[[record]]
compound = "Fc1cc(F)cc(/C=N/NC(=S)Nc2cccc3ccccc23)c1"
assay_value = 250

[[record]]
compound = "Fc1ccc(/C=N/NC(=S)Nc2cccc3ccccc23)c(F)c1"
assay_value = 250

[[record]]
compound = "Fc1ccc(F)c(/C=N/NC(=S)Nc2cccc3ccccc23)c1"
assay_value = 250

[[record]]
compound = "Fc1cccc(F)c1/C=N/NC(=S)Nc1cccc2ccccc12"
assay_value = 250

[[record]]
compound = "Fc1ccc(/C=N/NC(=S)Nc2cccc3ccccc23)cc1Cl"
assay_value = 250

[[record]]
compound = "Fc1ccc(Oc2ccc(/C=N/NC(=S)Nc3cccc4ccccc34)cc2)cc1"
assay_value = 250

[[record]]
compound = "CC(=O)N1CCN(c2ccc(OCC3COC(Cn4ccnc4)(c4ccc(Cl)cc4Cl)O3)cc2)CC1 (stereo unspecified) [KETOCONAZOLE]"
assay_value = 250

[[record]]
compound = "Fc1cc(F)c(/C=N/NC(=S)Nc2cccc3ccccc23)c(F)c1"
assay_value = 250

[[record]]
compound = "Fc1cccc(Cl)c1/C=N/NC(=S)Nc1cccc2ccccc12"
assay_value = 250

[[record]]
compound = "Fc1ccc(/C=N/NC(=S)Nc2cccc3ccccc23)cc1F"
assay_value = 250


###

Test system: Candida tropicalis
Experiment: Antifungal activity against Candida tropicalis NRLL Y-12968 after 48 hrs by broth microdilution method
Assay type: functional
Settings: NRLL Y-12968, 48 h
quantity measured: MIC (µg/mL)

[[record]]
molecule = "Fc1ccc(/C=N/NC(=S)Nc2cccc3ccccc23)cc1Cl"
assay_value = 250

[[record]]
molecule = "Fc1cccc(/C=N/NC(=S)Nc2cccc3ccccc23)c1F"
assay_value = 250

[[record]]
molecule = "Fc1ccc(/C=N/NC(=S)Nc2cccc3ccccc23)c(F)c1"
assay_value = 250

[[record]]
molecule = "CC(=O)N1CCN(c2ccc(OCC3COC(Cn4ccnc4)(c4ccc(Cl)cc4Cl)O3)cc2)CC1 (stereo not given)"
assay_value = 125

[[record]]
molecule = "Fc1cccc(Cl)c1/C=N/NC(=S)Nc1cccc2ccccc12"
assay_value = 250


###

Experiment: Genotoxicity in Salmonella typhimurium TA1535/pSK1002 assessed as induction ratio at 5 mg/ml after 2 hrs by umuC assay in presence of Sprague-Dawley rat liver S9 fraction
Assay type: toxicity, organism-based
Details: salmonella enterica subsp. enterica serovar typhimurium
Let's look at some compounds and their measured fold induction at 2 h, 5 mg/ml.
// response body must contain only the number

[[record]]
structure_as_smiles = "Fc1cccc(/C=N/NC(=S)Nc2cccc3ccccc23)c1F"
quantity_measured = "fold induction at 2 h, 5 mg/ml"
assay_value = 1.46


API: the following record is the query input.
Query: Fill in: fold induction at 2 h, 5 mg/ml of Fc1ccc(F)c(/C=N/NC(=S)Nc2cccc3ccccc23)c1 is ___
Result: 1.42

###

Assay: Genotoxicity in Salmonella typhimurium TA1535/pSK1002 assessed as induction ratio at 0.156 mg/ml after 2 hrs by umuC assay in presence of Sprague-Dawley rat liver S9 fraction
Format: toxicity, organism-based
Details: salmonella enterica subsp. enterica serovar typhimurium
Let's look at some molecules and their measured fold induction at 2 h, 0.156 mg/ml.
// response body must contain only the number

[[record]]
structure_as_smiles = "Fc1ccc(F)c(/C=N/NC(=S)Nc2cccc3ccccc23)c1"
assay_value = 1.5


API: the following record is the query input.
Query: Fill in: fold induction at 2 h, 0.156 mg/ml of Fc1cccc(/C=N/NC(=S)Nc2cccc3ccccc23)c1F is ___
Result: 5.34
